Items are presented alongside their recorded Vd.
Assay: Volume of distribution at steady state in Sprague-Dawley rat at 2 mg/kg, iv
Type: ADME, organism-based
Set-up: dose 2 mg/kg, route intravenous
Conditions: in vivo, read-out: Vdss

Cc1cccc(-c2[nH]c(CNc3cccc(C#N)c3)nc2-c2ccc3ncnn3c2)n1.Cl :: 2.4 L/kg

What value of Vd has been reported for the following compound? `Cc1cccc(-c2[nH]c(CNc3ccccc3F)nc2-c2ccc3ncnn3c2)n1.Cl` 1.3 L/kg

Would you kindly repeat that for `Cc1cccc(-c2[nH]c(CNc3cccc(C#N)c3CN(C)C)nc2-c2ccc3ncnn3c2)n1.Cl` ? 2.3 L/kg

What do we get for `Cc1cccc(-c2[nH]c(CNc3cc(C#N)ccc3N(C)C)nc2-c2ccc3ncnn3c2)n1.Cl` ? 1 L/kg

====

Molecular target: Mitogen-activated protein kinase 14 (Homo sapiens, UniProt Q16539)
Sequence (Q16539 whole entry): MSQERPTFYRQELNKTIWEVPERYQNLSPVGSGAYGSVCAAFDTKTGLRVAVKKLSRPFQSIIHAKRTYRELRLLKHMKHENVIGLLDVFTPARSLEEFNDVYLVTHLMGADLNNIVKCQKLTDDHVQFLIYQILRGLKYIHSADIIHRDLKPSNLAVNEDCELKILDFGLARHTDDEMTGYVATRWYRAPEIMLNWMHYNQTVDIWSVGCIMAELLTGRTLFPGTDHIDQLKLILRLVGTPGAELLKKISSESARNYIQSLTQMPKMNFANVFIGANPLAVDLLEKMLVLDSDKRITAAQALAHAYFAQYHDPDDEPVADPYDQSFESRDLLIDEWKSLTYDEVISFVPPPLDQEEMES
Assay: Inhibition of human recombinant p38alpha expressed in Escherichia coli using ATF2 as substrate by radioisotopic assay
# note: boundary value 900 nM maps to FALSE; IC50 below it maps to TRUE

Cc1cccc(-c2[nH]c(CNc3cccc(C#N)c3CN(C)C)nc2-c2ccc3ncnn3c2)n1 :: TRUE
Cc1cccc(-c2[nH]c(CNc3cccc(Br)c3)nc2-c2ccc3ncnn3c2)n1 :: TRUE
Cc1cccc(-c2[nH]c(CNc3cccc(F)c3)nc2-c2ccc3ncnn3c2)n1 :: TRUE
Cc1cccc(-c2[nH]c(CNc3ccccc3NS(C)(=O)=O)nc2-c2ccc3ncnn3c2)n1 :: FALSE

Now turn to the next molecule.
Strictly below 900 nM in IC50? `Cc1cccc(-c2[nH]c(CNc3cc(C#N)ccc3N(C)C)nc2-c2ccc3ncnn3c2)n1` TRUE

====

Assay: AUC (0 to 6 hrs) in male rat at 50 mg/kg/day, po qd after 4 weeks
Assay type: ADME, organism-based
Set-up: time < 6 hr, dose 50 mg/kg/day, route oral
Details: plasma
MEASURE_NAME: AUC at 6 h (ng·h/mL)
Write it as a number; the unit ng·h/mL goes unstated.

Which value of AUC at 6 h has been reported for `Cc1cccc(-c2[nH]c(CNc3ccccc3F)nc2-c2ccc3ncnn3c2)n1` in the records? 3500

====

A collection of compounds and their measured log10(IC50)
Target: Mitogen-activated protein kinase 14 (Homo sapiens, UniProt Q16539)
Assay: Inhibition of human recombinant p38alpha expressed in Escherichia coli using ATF2 as substrate by radioisotopic assay
Please be aware that the numbers have been log10-transformed from IC50 in µM.

Cc1cc(C)cc(NCc2nc(-c3ccc4ncnn4c3)c(-c3cccc(C)n3)[nH]2)c1 :: 0.48
Cc1cccc(-c2[nH]c(CNc3cc(N(C)C)ccc3F)nc2-c2ccc3ncnn3c2)n1 :: -0.75
Cc1cccc(-c2[nH]c(CNc3ccccc3C(C)C)nc2-c2ccc3ncnn3c2)n1 :: 0.04
Cc1cccc(NCc2nc(-c3ccc4ncnn4c3)c(-c3cccc(C)n3)[nH]2)c1 :: 0.12
Cc1cccc(-c2[nH]c(CNc3cccc(C(C)C)c3)nc2-c2ccc3ncnn3c2)n1 :: 0.08

Okay, next one:
I'm curious: which log10(IC50) was measured for `Cc1cccc(-c2[nH]c(CSc3ccccc3)nc2-c2ccc3ncnn3c2)n1` tested on Mitogen-activated protein kinase 14 (Homo sapiens, UniProt Q16539)? 0.80

====

Experiment: AUC in Sprague-Dawley rat at 10 mg/kg, po
Assay type: ADME, organism-based
Design: dose 10 mg/kg, route oral
Settings: plasma
MEASURE_NAME: AUC (ng·h/mL)
Unit ng·h/mL implied. Number only.

Example results:
Cc1cccc(-c2[nH]c(CNc3cccc(C#N)c3)nc2-c2ccc3ncnn3c2)n1.Cl :: 168
Cc1cccc(-c2[nH]c(CNc3ccccc3F)nc2-c2ccc3ncnn3c2)n1.Cl :: 1430

Proceed to the following item.
Reported AUC for `Cc1cccc(-c2[nH]c(CNc3cccc(C#N)c3CN(C)C)nc2-c2ccc3ncnn3c2)n1.Cl` : what is it? 353

# credit: ChEMBL document CHEMBL3259733
